Quick list: MIC per entry.
Tested on: Candida albicans
Test: Antifungal activity against Candida albicans SC5314 cultured in YNB media after 24 hrs by broth microdilution method
Assay type: functional
Settings: SC5314, 24 h

Field: example entries. Status: answers known.
COc1cc(C)nc(NC(=O)[N-]S(=O)(=O)Oc2ccccc2C(=O)OC(C)C)n1.[Na+] : 80 µg/mL
CCOC(=O)c1ccc(OS(=O)(=O)[N-]C(=O)Nc2nc(Cl)cc(OC)n2)cc1.[Na+] : > 100 µg/mL

**Q:** Give a short answer stating reported MIC for `CCOC(=O)c1ccccc1OS(=O)(=O)NC(=O)Nc1nc(OC)cc(OC)n1` .
**A:** 1.25 µg/mL

**Q:** State its MIC: `CCOc1ccccc1OS(=O)(=O)NC(=O)Nc1nc(OC)cc(OC)n1`
**A:** 0.625 µg/mL

**Q:** Supply reported MIC belonging to this compound: `COC(=O)c1ccccc1OS(=O)(=O)[N-]C(=O)Nc1nc(Cl)cc(OC)n1.[Na+]`
**A:** > 100 µg/mL

**Q:** Please indicate MIC recorded for `Cc1cc(Cl)nc(NC(=O)[N-]S(=O)(=O)Oc2ccccc2C(=O)Oc2ccccc2)n1.[Na+]`
**A:** > 100 µg/mL

**Q:** Look up MIC of `Cc1cc(Cl)nc(NC(=O)[N-]S(=O)(=O)Oc2ccc([N+](=O)[O-])cc2)n1.[Na+]` and report it.
**A:** > 100 µg/mL

**Q:** Please list MIC recorded for the compound `CCOC(=O)c1cccc(OS(=O)(=O)[N-]C(=O)Nc2nc(C)cc(OC)n2)c1.[Na+]`
**A:** > 100 µg/mL

**Q:** Kindly indicate its recorded MIC. Item: `CCOC(=O)c1ccccc1OS(=O)(=O)[N-]C(=O)Nc1nc(Br)cc(OC)n1.[Na+]`
**A:** > 100 µg/mL

**Q:** Dear colleague, please send me the reported MIC for `COc1cc(Br)nc(NC(=O)[N-]S(=O)(=O)Oc2ccccc2OCCI)n1.[Na+]` when you can.
**A:** > 100 µg/mL

**Q:** Tell me measured MIC for `CCOC(=O)c1cccc(OS(=O)(=O)[N-]C(=O)Nc2nc(C)cc(Cl)n2)c1.[Na+]` please.
**A:** > 100 µg/mL

**Q:** Entry `COc1cc(OC)nc(NC(=O)[N-]S(=O)(=O)Oc2ccccc2C(=O)OC(C)C)n1.[Na+]` needs its MIC filled in; supply it.
**A:** 20 µg/mL

**Q:** Consider the compound `COc1cc(OC)nc(NC(=O)[N-]S(=O)(=O)Oc2ccccc2OCCI)n1.[Na+]` and give its recorded MIC.
**A:** 2.5 µg/mL

**Q:** Give reported MIC value for `COc1cc(Cl)nc(NC(=O)[N-]S(=O)(=O)Oc2ccccc2[N+](=O)[O-])n1.[Na+]`
**A:** > 100 µg/mL

**Q:** State its MIC: `COc1cc(Br)nc(NC(=O)[N-]S(=O)(=O)Oc2ccccc2C(=O)OCCI)n1.[Na+]`
**A:** > 100 µg/mL

**Q:** Could you please provide reported MIC for `Cc1cc(Cl)nc(NC(=O)[N-]S(=O)(=O)Oc2ccccc2C(=O)OC(C)C)n1.[Na+]` ? Thanks!
**A:** > 100 µg/mL

**Q:** Please give the documented MIC of `Cc1cc(Cl)nc(NC(=O)[N-]S(=O)(=O)Oc2ccccc2C(=O)OCCI)n1.[Na+]`
**A:** > 100 µg/mL

**Q:** Give me measured MIC, please, for this compound: `Cc1cc(C)nc(NC(=O)[N-]S(=O)(=O)Oc2ccccc2C(=O)OCCI)n1.[Na+]`
**A:** > 100 µg/mL

**Q:** Provide only the value of recorded MIC for `COc1cc(Br)nc(NC(=O)[N-]S(=O)(=O)Oc2ccccc2C(=O)OC(C)C)n1.[Na+]`
**A:** > 100 µg/mL

**Q:** # return recorded MIC for entry `CCCOC(=O)c1ccccc1OS(=O)(=O)[N-]C(=O)Nc1nc(C)cc(Cl)n1.[Na+]`
**A:** > 100 µg/mL

**Q:** Report MIC for `CCCOC(=O)c1ccccc1OS(=O)(=O)[N-]C(=O)Nc1nc(Br)cc(OC)n1.[Na+]`
**A:** > 100 µg/mL

**Q:** For the compound `Cc1cc(Cl)nc(NC(=O)[N-]S(=O)(=O)Oc2ccccc2[N+](=O)[O-])n1.[Na+]` , report MIC.
**A:** 40 µg/mL

**Q:** Let me know recorded MIC for `CCOC(=O)c1ccc(OS(=O)(=O)[N-]C(=O)Nc2nc(OC)cc(OC)n2)cc1.[Na+]` , thanks.
**A:** > 100 µg/mL

**Q:** Using known records, supply MIC for `CCOC(=O)c1ccccc1OS(=O)(=O)[N-]C(=O)Nc1nc(C)cc(C)n1.[Na+]`
**A:** > 100 µg/mL
